Assay: Solubility of the compound in PBS at pH 7.4 incubated for 24 hrs by UHPLC analysis
Type: physicochemical
Property label: log10 of solubility at 24 h (log10 of the value in µM)

[
  {
    "Mol smiles": "COc1ccc(Cc2onc(O)c2C(=O)Nc2cccc(-c3ccccc3)c2)cc1",
    "Recorded result": 1.03
  },
  {
    "Mol smiles": "COc1ccc(Cn2nnc(O)c2C(=O)Nc2cccc(-c3ccc(O)cc3)c2)cc1",
    "Recorded result": 0.31
  },
  {
    "Mol smiles": "COc1ccc(Cn2nnc(O)c2C(=O)Nc2ccc3c(c2)ncn3-c2ccccc2)cc1",
    "Recorded result": 0.10
  },
  {
    "Mol smiles": "COc1ccc(Cn2nnc(O)c2C(=O)Nc2cc(C(F)(F)F)cc(C(F)(F)F)c2)cc1",
    "Recorded result": 0.84
  },
  {
    "Mol smiles": "COc1ccc(Cn2nnc(O)c2C(=O)Nc2cccc(C(F)(F)F)c2)cc1",
    "Recorded result": 1.33
  },
  {
    "Mol smiles": "COc1ccc(Cn2nnc(O)c2C(=O)Nc2cccc(-c3cccc(O)c3)c2)cc1",
    "Recorded result": 1.61
  }
]

====

Assay: Lipophilicity, logD of the compound in n-octanol and phosphate buffer at pH 7.4 incubated for 4 hrs by UV-Vis spectrophotometer based shake flask method
Assay type: physicochemical
Measured logD at 4 h accompanies every entry in the list below.

[
  {
    "Mol smiles": "COc1ccc(Cn2nnc(O)c2C(=O)Nc2ccc(-c3ccccc3)cc2)cc1",
    "logD at 4 h": 2.19
  },
  {
    "Mol smiles": "COc1ccc(Cn2nnc(O)c2C(=O)Nc2cccc(-c3ccccc3)c2)cc1",
    "logD at 4 h": 2.3
  },
  {
    "Mol smiles": "COc1ccc(Cn2nnc(O)c2C(=O)Nc2cc(C(F)(F)F)cc(C(F)(F)F)c2)cc1",
    "logD at 4 h": 2.47
  },
  {
    "Mol smiles": "COc1ccc(Cn2nnc(O)c2C(=O)Nc2ccc3c(c2)ncn3-c2ccccc2)cc1",
    "logD at 4 h": 2.19
  },
  {
    "Mol smiles": "COc1ccc(Cn2nnc(O)c2C(=O)Nc2cccc(-c3cccc(O)c3)c2)cc1",
    "logD at 4 h": 2.25
  },
  {
    "Mol smiles": "COc1ccc(Cn2nnc(O)c2C(=O)Nc2cccc(-c3ccc(O)cc3)c2)cc1",
    "logD at 4 h": 2.19
  },
  {
    "Mol smiles": "COc1ccc(Cn2nnc(O)c2C(=O)Nc2cccc(-c3cccc(OC)c3)c2)cc1",
    "logD at 4 h": 2.5
  },
  {
    "Mol smiles": "COc1ccc(Cn2nnc(O)c2C(=O)Nc2cccc(C(F)(F)F)c2)cc1",
    "logD at 4 h": 1.1
  },
  {
    "Mol smiles": "COc1ccc(Cc2onc(O)c2C(=O)Nc2cccc(-c3ccccc3)c2)cc1",
    "logD at 4 h": 2.16
  },
  {
    "Mol smiles": "COc1ccc(Cn2nnc(O)c2C(=O)Nc2cccc(-c3ccc(OC)cc3)c2)cc1",
    "logD at 4 h": 2.59
  }
]

====

Molecular target: UniProtKB P42330
Sequence (P42330 whole entry): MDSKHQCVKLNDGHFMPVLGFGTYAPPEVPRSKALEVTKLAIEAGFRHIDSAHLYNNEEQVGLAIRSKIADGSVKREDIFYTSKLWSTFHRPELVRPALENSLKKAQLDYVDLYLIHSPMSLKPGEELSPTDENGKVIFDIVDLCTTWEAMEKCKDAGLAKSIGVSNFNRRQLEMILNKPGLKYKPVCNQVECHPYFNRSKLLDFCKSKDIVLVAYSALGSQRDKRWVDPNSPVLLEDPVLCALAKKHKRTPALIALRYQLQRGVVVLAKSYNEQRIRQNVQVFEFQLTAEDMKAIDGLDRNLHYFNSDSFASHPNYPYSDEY
Test: Inhibition of recombinant human AKR1C3 transfected in Escherichia coli BL21 (DE) assessed as reduction in NADPH production using S-tetralol as substrate by fluorescence based analysis
Property label: IC50 (nM)

[
  {
    "Mol smiles": "COc1ccc(Cc2onc(O)c2C(=O)Nc2cccc(-c3ccccc3)c2)cc1",
    "Experimental target": "UniProtKB P42330",
    "Units of measure": "nM",
    "Recorded result": 190
  },
  {
    "Mol smiles": "COc1ccc(Cn2nnc(O)c2C(=O)Nc2cccc(-c3ccc(O)cc3)c2)cc1",
    "Experimental target": "UniProtKB P42330",
    "Units of measure": "nM",
    "Recorded result": 310
  },
  {
    "Mol smiles": "COc1ccc(Cn2nnc(O)c2C(=O)Nc2ccc3c(c2)ncn3-c2ccccc2)cc1",
    "Experimental target": "UniProtKB P42330",
    "Units of measure": "nM",
    "Recorded result": 1630
  },
  {
    "Mol smiles": "COc1ccc(Cn2nnc(O)c2C(=O)Nc2cccc(-c3cccc(O)c3)c2)cc1",
    "Experimental target": "UniProtKB P42330",
    "Units of measure": "nM",
    "Recorded result": 210
  },
  {
    "Mol smiles": "COc1ccc(Cn2nnc(O)c2C(=O)Nc2ccc(-c3ccccc3)cc2)cc1",
    "Experimental target": "UniProtKB P42330",
    "Units of measure": "nM",
    "Recorded result": 470
  },
  {
    "Mol smiles": "COc1ccc(Cn2nnc(O)c2C(=O)Nc2cc(C(F)(F)F)cc(C(F)(F)F)c2)cc1",
    "Experimental target": "UniProtKB P42330",
    "Units of measure": "nM",
    "Recorded result": 400
  },
  {
    "Mol smiles": "COc1ccc(Cn2nnc(O)c2C(=O)Nc2cccc(-c3ccc(OC)cc3)c2)cc1",
    "Experimental target": "UniProtKB P42330",
    "Units of measure": "nM",
    "Recorded result": 220
  },
  {
    "Mol smiles": "COc1ccc(Cn2nnc(O)c2C(=O)Nc2cccc(-c3cccc(OC)c3)c2)cc1",
    "Experimental target": "UniProtKB P42330",
    "Units of measure": "nM",
    "Recorded result": 260
  },
  {
    "Mol smiles": "COc1ccc(Cn2nnc(O)c2C(=O)Nc2cccc(-c3ccccc3)c2)cc1",
    "Experimental target": "UniProtKB P42330",
    "Units of measure": "nM",
    "Recorded result": 69
  },
  {
    "Mol smiles": "COc1ccc(Cn2nnc(O)c2C(=O)Nc2ccc(Oc3ccccc3)cc2)cc1",
    "Experimental target": "UniProtKB P42330",
    "Units of measure": "nM",
    "Recorded result": 270
  },
  {
    "Mol smiles": "COc1ccc(Cn2nnc(O)c2C(=O)Nc2cccc(Oc3ccccc3)c2)cc1",
    "Experimental target": "UniProtKB P42330",
    "Units of measure": "nM",
    "Recorded result": 110
  }
]
